Target: Calcium/calmodulin-dependent protein kinase type 1D (Homo sapiens) (UniProt Q8IU85);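 further: reported figure is the mean percent inhibition of CAMK1D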
Sequence (Q8IU85 whole entry, looked up): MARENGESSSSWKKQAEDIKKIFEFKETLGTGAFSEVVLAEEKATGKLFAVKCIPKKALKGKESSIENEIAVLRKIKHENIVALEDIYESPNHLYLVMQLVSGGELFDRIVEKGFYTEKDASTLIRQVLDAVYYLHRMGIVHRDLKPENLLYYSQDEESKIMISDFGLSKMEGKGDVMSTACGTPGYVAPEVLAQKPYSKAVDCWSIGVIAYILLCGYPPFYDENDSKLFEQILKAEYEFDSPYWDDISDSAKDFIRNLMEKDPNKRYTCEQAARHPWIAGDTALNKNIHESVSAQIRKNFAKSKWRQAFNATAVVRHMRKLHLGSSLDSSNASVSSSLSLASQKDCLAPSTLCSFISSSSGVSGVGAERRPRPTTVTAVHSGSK
Details: at 1 µM
Known inhibition of a selection of molecules
Please respond with the number in % and leave the unit unwritten.

Please report the recorded inhibition for O=S(=O)(CCNCc1ccc(-c2ccc3ncnc(Nc4ccc(OCc5cccc(F)c5)c(Cl)c4)c3c2)o1)c1ccccc1 .
1.55

More entries:
Need inhibition, item COC(=O)Nc1nc2ccc(S(=O)(=O)c3ccc(NC(=O)Nc4cc(C(F)(F)F)ccc4F)cc3)cc2[nH]1
1.45

# iterate: CCN(CC)S(=O)(=O)c1ccc(OC)c(Nc2ncc(-c3ccccc3)o2)c1
-0.06

Same read-out for Clc1ccc(-c2nn3ncccc3c2-c2ccnc(Nc3ccccc3)n2)cc1 ?
1.17

Then this molecule: CS(=O)(=O)CCNCc1coc(-c2ccc3ncnc(Nc4ccc(OCc5ccccc5)cc4)c3c2)c1
2.2

Another: N#Cc1c(NC(=O)CN2CCOCC2)sc2c1CCCC2
0.36

Ok, now COc1ccc2c(-c3ccnc(Nc4cccc(OC(F)(F)F)c4)n3)cnn2n1
2.77

* * *

// reported inhibition per item
Target: Serine/threonine-protein kinase 10 (Homo sapiens);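 further: reported value is the mean percent inhibition of LOK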
Conditions: at 1 µM
Give just the numeric value; % need not be written.

Observe how each entry below is paired with its result.
Short answer please: inhibition, Serine/threonine-protein kinase 10 (Homo sapiens), entry Cc1ccc(O)cc1Nc1ccnc2cc(-c3ccccn3)ccc12
47.6

Please answer likewise for Clc1ccc(-c2nn3ncccc3c2-c2ccnc(Nc3ccccc3)n2)cc1
40.8

Item: COc1cccc(-n2ncc3c(N/N=C/c4ccc(F)cc4)ncnc32)c1
10.9

CCN(CC)S(=O)(=O)c1ccc(OC)c(Nc2ncc(-c3ccccc3)o2)c1 ?
8.37

Now this one: CCn1c(-c2nonc2N)nc2cnc(Oc3cccc(NC(=O)c4ccc(N(C)C)cc4)c3)cc21
5.59

---
Notebook entry, Serine/threonine-protein kinase 10 (Homo sapiens) assay: inhibition of CCCN(CCS(C)(=O)=O)Cc1ccc(-c2ccc3ncnc(Nc4ccc(OCc5cccc(F)c5)c(Cl)c4)c3c2)o1 = ?
5.54

Try Cc1cccc2c1NC(=O)/C2=N\Nc1ccc(S(N)(=O)=O)cc1 next.
4.33

And CC(=O)NCc1cccc(C#Cc2cncnc2Nc2ccc(OCc3cccc(F)c3)c(Cl)c2)c1 ?
8.18

Also, COc1cc2ncn(-c3cc(OCc4ccccc4C(F)(F)F)c(C(=O)N(C)C)s3)c2cc1OC please.
55.8

// next record CS(=O)(=O)CCNCc1coc(-c2ccc3ncnc(Nc4ccc(OCc5ccccc5)cc4)c3c2)c1
6.21

* * *

# Lookup of reported inhibition keyed by entry
Biological target: ALK tyrosine kinase receptor (Homo sapiens) (UniProt Q9UM73);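 further: values are mean percent inhibition of ALK, screened as part of the GSK PKIS panel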
Sequence (Q9UM73 19-1620 limits assumed): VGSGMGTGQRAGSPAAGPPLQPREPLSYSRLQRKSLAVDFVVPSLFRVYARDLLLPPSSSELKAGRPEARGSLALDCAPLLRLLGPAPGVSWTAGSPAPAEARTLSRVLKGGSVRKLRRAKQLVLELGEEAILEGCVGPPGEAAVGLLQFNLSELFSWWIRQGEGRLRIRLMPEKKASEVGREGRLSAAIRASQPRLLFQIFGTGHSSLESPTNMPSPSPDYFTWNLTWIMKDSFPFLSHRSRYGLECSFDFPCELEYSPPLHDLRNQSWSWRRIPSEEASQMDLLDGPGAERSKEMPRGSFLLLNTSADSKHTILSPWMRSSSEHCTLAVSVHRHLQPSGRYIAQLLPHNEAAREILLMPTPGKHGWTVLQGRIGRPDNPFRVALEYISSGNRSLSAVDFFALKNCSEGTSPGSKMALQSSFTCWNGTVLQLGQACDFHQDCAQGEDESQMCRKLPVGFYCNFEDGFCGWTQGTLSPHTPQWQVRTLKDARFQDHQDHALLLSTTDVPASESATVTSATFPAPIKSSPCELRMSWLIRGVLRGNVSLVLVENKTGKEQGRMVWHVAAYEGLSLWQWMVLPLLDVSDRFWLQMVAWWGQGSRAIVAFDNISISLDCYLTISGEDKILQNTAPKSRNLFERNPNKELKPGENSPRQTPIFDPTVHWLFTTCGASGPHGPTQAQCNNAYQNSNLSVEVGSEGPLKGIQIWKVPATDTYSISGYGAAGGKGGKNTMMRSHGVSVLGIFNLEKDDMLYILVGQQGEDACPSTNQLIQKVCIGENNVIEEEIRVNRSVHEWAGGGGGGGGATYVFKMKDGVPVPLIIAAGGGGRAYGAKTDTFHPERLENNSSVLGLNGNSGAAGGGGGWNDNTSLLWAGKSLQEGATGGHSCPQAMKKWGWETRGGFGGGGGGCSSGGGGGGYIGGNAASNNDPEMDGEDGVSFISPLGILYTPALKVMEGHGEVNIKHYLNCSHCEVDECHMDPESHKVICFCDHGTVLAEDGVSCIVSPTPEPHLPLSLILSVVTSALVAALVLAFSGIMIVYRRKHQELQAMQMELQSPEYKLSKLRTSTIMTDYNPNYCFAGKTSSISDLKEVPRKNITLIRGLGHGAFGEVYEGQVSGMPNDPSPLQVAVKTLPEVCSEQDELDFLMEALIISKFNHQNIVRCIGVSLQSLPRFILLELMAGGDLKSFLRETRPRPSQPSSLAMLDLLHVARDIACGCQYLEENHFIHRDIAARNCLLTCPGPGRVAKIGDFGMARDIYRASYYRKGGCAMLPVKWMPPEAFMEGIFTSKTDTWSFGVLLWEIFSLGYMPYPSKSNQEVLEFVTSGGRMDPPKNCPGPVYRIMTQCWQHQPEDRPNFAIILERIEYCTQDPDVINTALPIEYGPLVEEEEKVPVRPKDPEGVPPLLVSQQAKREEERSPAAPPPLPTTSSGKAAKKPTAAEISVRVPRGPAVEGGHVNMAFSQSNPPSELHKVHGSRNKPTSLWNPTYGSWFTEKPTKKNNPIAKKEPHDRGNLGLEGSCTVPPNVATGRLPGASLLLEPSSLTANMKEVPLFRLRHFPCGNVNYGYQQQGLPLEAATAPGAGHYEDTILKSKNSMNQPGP
Details: at 1 µM
Report only the number, with the unit % understood.

Here's what some known entries look like.
Reported inhibition, compound Fc1cccc(COc2ccc(Nc3ncnc4sc(-c5ccco5)cc34)cc2Cl)c1 : ____
4.37

Could you do the same for Cc1cccc(Nc2ncc(-c3ccccc3)o2)c1 , please?
4.76

Next: CCN(CC)S(=O)(=O)c1ccc(OC)c(Nc2ncc(-c3ccccc3)o2)c1
4.19

Now consider COC(=O)c1sc(-n2cnc3cc(OC)c(OC)cc32)cc1OCc1ccccc1C(F)(F)F .
12.4

Queued: CNC(=O)c1cncc(/C=C/c2ccccc2Cl)c1
0.92

New cases:
Which measured inhibition value corresponds to Fc1ccc(-c2cc(-c3c[nH]nc3-c3ccccn3)ccn2)cc1 ?
5.67

Next entry: COc1ccc2[nH]c3c4[nH]c5ccc(OC)cc5c4c4c(c3c2c1)C(=O)NC4=O
58.3

Consider next the compound COc1ccc(CNC(=O)c2ccc(-c3cc(-c4nnc(C)o4)ccc3C)cc2)cc1 in the same way.
-0.53

Consider next the compound COC(=O)Nc1nc2ccc(Oc3ccc(NC(=O)Nc4cccc(Cl)c4)cc3)cc2[nH]1 in the same way.
2.26

Okay, and CNC(=O)c1cccc(C#Cc2cncnc2Nc2ccc(OCc3cccc(F)c3)c(Cl)c2)c1 ?
3.83

* * *

Biological target: Testis-specific serine/threonine-protein kinase 2 (Homo sapiens);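 further: values are mean inhibition of TSSK2 activity from the GSK PKIS profiling panel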
Details: at 0.1 µM
reported_property: inhibition (%)
Express the result in % but write the number alone.

Form field: reported inhibition of COc1ccc(-c2cc3c(N)ncnc3o2)cc1
-1.12

Then CC(=O)Nc1cccc(C#Cc2cncnc2Nc2ccc(OCc3cccc(F)c3)c(Cl)c2)c1 ?
0.06

Same question for CN1CCC(n2cnc(-c3ccc(F)cc3)c2-c2ccnc(N)n2)CC1 please.
2.28

Others:
Param item = CCn1c(-c2nonc2N)nc2c(C#CC(C)(C)O)nc(OC[C@H](N)c3ccccc3)cc21 ; retrieve measured inhibition.
0.93

CC(=O)NCc1cccc(C#Cc2cncnc2Nc2ccc(OCc3cccc(F)c3)c(Cl)c2)c1 ?
0.5

Input N#Cc1c(NC(=O)CN2CCOCC2)sc2c1CCCC2
1.22

Next record, please: CCCN1CCC(c2ccc(Nc3nc(Nc4cc(F)ccc4C(N)=O)c4cc[nH]c4n3)c(OC)c2)CC1
63.3

* * *

Target: Serine/threonine-protein kinase DCLK2 (Homo sapiens);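 further: each value is a mean percent inhibition of DCLK2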
Sequence (whole entry): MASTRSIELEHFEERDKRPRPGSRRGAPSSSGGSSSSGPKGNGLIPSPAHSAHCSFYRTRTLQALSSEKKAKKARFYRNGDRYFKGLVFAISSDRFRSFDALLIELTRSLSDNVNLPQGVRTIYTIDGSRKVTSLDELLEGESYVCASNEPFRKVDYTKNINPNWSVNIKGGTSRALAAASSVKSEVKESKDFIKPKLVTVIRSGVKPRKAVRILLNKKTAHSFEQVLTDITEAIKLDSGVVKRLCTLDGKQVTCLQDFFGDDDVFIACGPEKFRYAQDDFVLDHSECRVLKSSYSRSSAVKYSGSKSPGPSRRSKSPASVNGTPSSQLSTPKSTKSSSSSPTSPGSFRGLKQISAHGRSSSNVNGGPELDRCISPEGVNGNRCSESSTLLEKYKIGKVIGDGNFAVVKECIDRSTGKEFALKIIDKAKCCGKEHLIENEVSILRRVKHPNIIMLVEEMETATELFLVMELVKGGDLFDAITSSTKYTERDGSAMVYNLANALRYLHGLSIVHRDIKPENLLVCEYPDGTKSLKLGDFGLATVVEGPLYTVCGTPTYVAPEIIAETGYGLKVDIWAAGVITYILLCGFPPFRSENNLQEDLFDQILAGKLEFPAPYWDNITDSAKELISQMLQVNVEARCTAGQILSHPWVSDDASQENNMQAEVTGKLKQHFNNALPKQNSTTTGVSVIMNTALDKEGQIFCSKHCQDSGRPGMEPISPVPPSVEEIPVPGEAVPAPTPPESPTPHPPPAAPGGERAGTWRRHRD
Conditions: at 1 µM
Readings of inhibition for the listed compounds
Answer with a number only, understood to be in %.

The cases that follow already have their inhibition on record.
Given COc1cc2ncn(-c3cc(OCc4ccccc4C(F)(F)F)c(C(=O)N(C)C)s3)c2cc1OC , state its recorded inhibition.
3.14

Again, but for c1cc(-c2cnn3nc(N4CCOCC4)ccc23)nc(NC2CC2)n1
-2.52

// next record COc1cccc(-n2ncc3c(N/N=C/c4ccc(F)cc4)ncnc32)c1
0.2

Follow-up item: Cc1cccc2c1NC(=O)/C2=N\Nc1ccc(S(N)(=O)=O)cc1
2.14

More entries:
Fill in: inhibition of N#Cc1c(NC(=O)c2ccc(F)cc2)sc2c1CCCC2 is ___
5.74

Next compound: COc1ccc2c(-c3ccnc(Nc4cccc(OC(F)(F)F)c4)n3)cnn2n1
0.97

Moving on to c1ccc(COc2ccc(Nc3ncnc4ccc(-c5ccco5)cc34)cc2)cc1
-0.08

What do you get for O=S(=O)(CCNCc1ccc(-c2ccc3ncnc(Nc4ccc(OCc5cccc(F)c5)c(Cl)c4)c3c2)o1)c1ccccc1 ?
2.85

Please do the same for COc1cc(N2CCN(C(C)C)CC2)ccc1Nc1nc(Nc2ccc(F)cc2C(N)=O)c2cc[nH]c2n1 as well.
8.47

Moving on to the next compound: Clc1ccc(-c2nn3ncccc3c2-c2ccnc(Nc3ccccc3)n2)cc1
6.65

What do you have for CNC(=O)c1cc(-c2ccc(F)cc2)cc(-c2ccc(S(=O)(=O)N3CCCC3)cc2)c1N ?
-0.01

Also CCNC(=O)O[C@H]1CN[C@H](C#Cc2cc3ncnc(Nc4ccc(OCc5cccc(F)c5)c(Cl)c4)c3s2)C1 ?
2.85

* * *

Target: RAC-alpha serine/threonine-protein kinase (Homo sapiens)
Conditions: at 1 µM
Description: GSK_PKIS: AKT1 mean inhibition at 1 uM [Nanosyn]
# maps each entry to its inhibition
Express your answer in %, writing the number without its unit.

// solved cases for inhibition follow
Value lookup for inhibition; key = Cc1ccc(O)cc1Nc1ccnc2cc(-c3ccccn3)ccc12
1.02

Check Nc1nc(-c2cccc(Cl)c2)c(-c2ccc3ncccc3n2)s1 too.
0.39

Next: CCn1c(-c2nonc2N)nc2c(C#CC(C)(C)O)nc(OC[C@H](N)c3ccccc3)cc21
90.4

What about this molecule? COc1ccc(CNC(=O)c2ccc(-c3cc(-c4nnc(C)o4)ccc3C)cc2)cc1
0.4

For Fc1ccc(-c2cc(-c3c[nH]nc3-c3ccccn3)ccn2)cc1 then?
0.95

Next:
GET /values?readout=inhibition&item= COc1ccc(-c2nn3ncccc3c2-c2ccnc(Nc3ccc4c(c3)OCCO4)n2)cc1
-0.09

Also check NS(=O)(=O)c1ccc(N/N=C2\C(=O)Nc3ccc4ncccc4c32)cc1
0.69

Try the molecule CCN(CC)S(=O)(=O)c1ccc(OC)c(Nc2ncc(-c3ccccc3)o2)c1
-0.4
